The reported numbers originate from patent US20080188528A1.

- targetSystem: human C3a receptor (C3aR) (Homo sapiens, UniProt Q16581)
- Construct: expressed in transfected cells
- Sequence (Q16581 whole entry): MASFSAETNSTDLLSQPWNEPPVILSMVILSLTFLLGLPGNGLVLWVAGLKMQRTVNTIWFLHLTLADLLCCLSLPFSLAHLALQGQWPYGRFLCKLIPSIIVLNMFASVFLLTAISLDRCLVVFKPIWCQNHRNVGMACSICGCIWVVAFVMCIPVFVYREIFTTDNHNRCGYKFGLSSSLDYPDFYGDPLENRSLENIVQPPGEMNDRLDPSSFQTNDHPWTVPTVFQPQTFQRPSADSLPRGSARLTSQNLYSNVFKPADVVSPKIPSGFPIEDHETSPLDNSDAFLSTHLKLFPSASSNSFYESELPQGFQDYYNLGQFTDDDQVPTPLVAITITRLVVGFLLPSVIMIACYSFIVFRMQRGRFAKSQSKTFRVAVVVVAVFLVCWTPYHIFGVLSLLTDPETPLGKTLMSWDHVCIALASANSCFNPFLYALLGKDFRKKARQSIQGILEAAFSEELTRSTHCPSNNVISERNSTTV
- testDetails: Inhibition of human [125I]-C3a binding to human C3a receptor (SPA, membranes of HEK293 cells expressing recombinant C3aR)
- particulars: 0.1 nM [125I]-C3a, 3 hours at room temperature; Table 1
pIC50: −log10 of the molar value.
assayReadout: pIC50

Completed entries (count: 4):
N=C(N)NCCC[C@H](NC(=O)c1ccc(-c2ccccc2)n(Cc2ccccc2)c1=O)C(=O)O: 4.70 to 6.30
CC(C)c1ccccc1Cn1cccc(C(=O)N[C@@H](CCCNC(=N)N)C(=O)O)c1=O: 6.30 to 7.30
N=C(N)NCCC[C@@H](NC(=O)c1cccn(Cc2ccccc2)c1=O)C(=O)O: 4.70 to 6.30
CC(C)c1cccc(-c2ccccc2Cn2cccc(C(=O)N[C@@H](CCCNC(=N)N)C(=O)O)c2=O)c1: > 7.30

Go through the items and report each one's pIC50.
1. N=C(N)NCCC[C@H](NC(=O)c1cccn(Cc2ccc3ccccc3c2)c1=O)C(=O)O
2. N=C(N)NCCC[C@H](NC(=O)c1cccn(C2c3ccccc3-c3ccccc32)c1=O)C(=O)O
3. N=C(N)NCCC[C@H](NC(=O)c1cccn(Cc2ccccc2-c2ccc3ccccc3c2)c1=O)C(=O)O
4. CC(C)c1ccccc1-c1ccccc1Cn1cccc(C(=O)N[C@@H](CCCNC(=N)N)C(=O)O)c1=O
5. CC1(C)CCC(C)(C)c2cc(Cn3cccc(C(=O)N[C@@H](CCCNC(=N)N)C(=O)O)c3=O)ccc21
6. N=C(N)NCCC[C@H](NC(=O)c1cccn(Cc2cccc(F)c2)c1=O)C(=O)O
7. N=C(N)NCCC[C@H](NC(=O)c1cccn(Cc2ccccc2)c1=O)C(=O)O

a:
1. > 7.30
2. 6.30 to 7.30
3. > 7.30
4. > 7.30
5. 4.70 to 6.30
6. > 7.30
7. 6.30 to 7.30

Go through the items and report each one's pIC50.
1. CC(C)c1ccc(-c2ccccc2Cn2cccc(C(=O)N[C@@H](CCCNC(=N)N)C(=O)O)c2=O)cc1
2. CC(C)c1cccc(Cn2cccc(C(=O)N[C@@H](CCCNC(=N)N)C(=O)O)c2=O)c1
3. N=C(N)NCCC[C@H](NC(=O)c1cccn(Cc2ccc3cc(F)ccc3c2)c1=O)C(=O)O
4. N=C(N)NCCC[C@H](NC(=O)c1cccn(Cc2cccc3ccccc23)c1=O)C(=O)O
5. N=C(N)NCCC[C@H](NC(=O)c1cccn(Cc2ccc(Br)cc2)c1=O)C(=O)O
6. N=C(N)NCCC[C@H](NC(=O)c1cccn(Cc2ccccc2-c2ccc(F)cc2)c1=O)C(=O)O
7. N=C(N)NCCC[C@H](NC(=O)c1cccn(Cc2cccc(-c3ccccc3)c2)c1=O)C(=O)O
8. N=C(N)NCCC[C@H](NC(=O)c1cccn(Cc2ccccc2-c2ccccc2)c1=O)C(=O)O

a:
1: 6.30 to 7.30; 2: 6.30 to 7.30; 3: > 7.30; 4: > 7.30; 5: > 7.30; 6: > 7.30; 7: 6.30 to 7.30; 8: > 7.30

Go through the items and report each one's pIC50.
1. N=C(N)NCCC[C@H](NC(=O)c1cccn(Cc2cccc(Br)c2)c1=O)C(=O)O
2. N=C(N)NCCC[C@H](NC(=O)c1cccn(Cc2ccc(-c3ccccc3)cc2)c1=O)C(=O)O
3. COc1ccc2cc(Cn3cccc(C(=O)N[C@@H](CCCNC(=N)N)C(=O)O)c3=O)ccc2c1
4. N=C(N)NCCC[C@H](NC(=O)c1cccn(Cc2ccccc2Br)c1=O)C(=O)O
5. N=C(N)NCCC[C@H](NC(=O)c1cccn(-c2ccccc2)c1=O)C(=O)O
6. N=C(N)NCCC[C@H](NC(=O)c1cccn(CCC(c2ccccc2)c2ccccc2)c1=O)C(=O)O
7. N=C(N)NCCC[C@H](NC(=O)c1cccn(-c2ccc(-c3ccccc3)cc2)c1=O)C(=O)O

a:
1: > 7.30; 2: > 7.30; 3: 6.30 to 7.30; 4: > 7.30; 5: 4.70 to 6.30; 6: > 7.30; 7: 4.70 to 6.30

Go through the items and report each one's pIC50.
1. N=C(N)NCCC[C@H](NC(=O)c1cccn(CC(=O)N(c2ccccc2)c2ccccc2)c1=O)C(=O)O
2. Cn1cccc(C(=O)N[C@@H](CCCNC(=N)N)C(=O)O)c1=O
3. N=C(N)NCCC[C@H](NC(=O)c1cccn(Cc2cccc(Cl)c2)c1=O)C(=O)O
4. N=C(N)NCCC[C@H](NC(=O)c1cccn(Cc2ccc(Cc3ccccc3)cc2)c1=O)C(=O)O
5. N=C(N)NCCC[C@H](NC(=O)c1cccn(Cc2ccccc2-c2cccc3ccccc23)c1=O)C(=O)O

a:
6.30 to 7.30
4.70 to 6.30
> 7.30
6.30 to 7.30
> 7.30

* * *

- targetSystem: human C3a receptor (C3aR) (Homo sapiens, UniProt Q16581)
- Construct: expressed in transfected cells
- testDetails: Inhibition of human [125I]-C3a binding to human C3a receptor (SPA, membranes of HEK293 cells expressing recombinant C3aR)
- particulars: 0.1 nM [125I]-C3a, 3 hours at room temperature; Table 6
assayReadout: IC50

Completed entries (count: 10):
COc1ccn(C(c2ccccc2)c2ccccc2)c(=O)c1C(=O)N[C@@H](CCCNC(C)=N)C(=O)O: 500 to 20000 nM
N=C(N)NCCC[C@H](NC(=O)c1ccc(C(O)(c2ccccc2)c2ccccc2)s1)C(=O)O: < 50 nM
N=C(NCCC[C@H](NC(=O)c1ccc(C(c2ccccc2)c2ccccc2)s1)C(=O)O)C1CC1: 500 to 20000 nM
CC(=N)NCCC[C@H](NC(=O)c1ccc(C(c2ccccc2)c2ccccc2)s1)C(=O)O: 50 to 500 nM
CC(=N)NCCC[C@H](NC(=O)c1ccc(C(c2cccc(Cl)c2)c2cccc(Cl)c2)s1)C(=O)O: < 50 nM
CC(=N)NCCC[C@H](NC(=O)c1ccc(C(c2ccccc2)c2ccccc2)o1)C(=O)O: 50 to 500 nM
CC(=N)Nc1cccc([C@H](NC(=O)c2ccc(C(c3ccccc3)c3ccccc3)s2)C(=O)O)c1: 500 to 20000 nM
CCN(CC)CCC[C@H](NC(=O)c1cccn(C(c2ccccc2)c2ccccc2)c1=O)C(=O)O: < 50 nM
N=C(N)NC(=O)CC[C@H](NC(=O)c1ccc(C(c2ccccc2)c2ccccc2)cc1)C(=O)O: < 50 nM
CC(=N)NCCC[C@H](NC(=O)c1cccn(Cc2cc(Br)cc(Br)c2)c1=O)C(=O)O: < 50 nM

Go through the items and report each one's IC50.
1. N=C(NCCC[C@H](NC(=O)c1ccc(C(c2ccccc2)c2ccccc2)s1)C(=O)O)c1ccccn1
2. CC(=N)Nc1ccc([C@H](NC(=O)c2ccc(C(c3ccccc3)c3ccccc3)s2)C(=O)O)cc1
3. N=C(NCCC[C@H](NC(=O)c1ccc(C(c2ccccc2)c2ccccc2)s1)C(=O)O)c1ccccc1

a:
1: 500 to 20000 nM; 2: 500 to 20000 nM; 3: 500 to 20000 nM

* * *

Provide the reported IC50 of each item.
- targetSystem: human C3a receptor (C3aR) (Homo sapiens, UniProt Q16581)
- Construct: expressed in transfected cells
- testDetails: Inhibition of human [125I]-C3a binding to human C3a receptor (SPA, membranes of HEK293 cells expressing recombinant C3aR)
- particulars: 0.1 nM [125I]-C3a, 3 hours at room temperature; Table 6
- Procedure: Inhibition of human [^125I]-C3a binding to human C3a receptor Binding of human [^125I]-C3a to human C3a receptor (C3aR) was done using cell membranes from HEK293 cells stably expressing recombinant C3aR, in a homogeneous scintillation proximity assay (SPA). […] Incubation was done for 3 hours at room temperature followed by reading in a TopCount scintillation microplate reader. Non-specific binding was determined by adding 1 μM unlabeled C3a (Calbiochem) to the assay mixture. […]

CC(=N)NCCC[C@H](NC(=O)c1cccn(Cc2cccc(I)c2)c1=O)C(=O)O [Compound 114]: 50 to 500 nM
CC(=N)NCCC[C@H](NC(=O)c1cccn(Cc2ccc(C(F)(F)F)cc2)c1=O)C(=O)O [Compound 113]: 500 to 20000 nM
N/C(=N\O)NCCC[C@H](NC(=O)c1cccn(C(c2ccccc2)c2ccccc2)c1=O)C(=O)O [Compound 92]: < 50 nM
CC(=N)NCCCC[C@H](NC(=O)c1cccn(C(c2ccccc2)c2ccccc2)c1=O)C(=O)O [Compound 88]: 50 to 500 nM

Go through the items and report each one's IC50.
1. CC(=N)NCCC[C@H](NC(=O)c1cccn(Cc2cccc(Br)c2)c1=O)C(=O)O [Compound 109]
2. CC(C)(C)Cn1cccc(C(=O)N[C@@H](CCCNC(=N)N)C(=O)O)c1=O [Compound 90]
3. CC(=N)NCC[C@H](NC(=O)c1cccn(C(c2ccccc2)c2ccccc2)c1=O)C(=O)O [Compound 94]
4. C/C(=N\O)NCCC[C@H](NC(=O)c1ccc(C(c2ccccc2)c2ccccc2)s1)C(=O)O [Compound 136]

a:
50 to 500 nM
< 50 nM
50 to 500 nM
50 to 500 nM
